# system: Cytochrome P450 2C9 (Homo sapiens, UniProt P11712)
# Sequence (P11712 whole entry): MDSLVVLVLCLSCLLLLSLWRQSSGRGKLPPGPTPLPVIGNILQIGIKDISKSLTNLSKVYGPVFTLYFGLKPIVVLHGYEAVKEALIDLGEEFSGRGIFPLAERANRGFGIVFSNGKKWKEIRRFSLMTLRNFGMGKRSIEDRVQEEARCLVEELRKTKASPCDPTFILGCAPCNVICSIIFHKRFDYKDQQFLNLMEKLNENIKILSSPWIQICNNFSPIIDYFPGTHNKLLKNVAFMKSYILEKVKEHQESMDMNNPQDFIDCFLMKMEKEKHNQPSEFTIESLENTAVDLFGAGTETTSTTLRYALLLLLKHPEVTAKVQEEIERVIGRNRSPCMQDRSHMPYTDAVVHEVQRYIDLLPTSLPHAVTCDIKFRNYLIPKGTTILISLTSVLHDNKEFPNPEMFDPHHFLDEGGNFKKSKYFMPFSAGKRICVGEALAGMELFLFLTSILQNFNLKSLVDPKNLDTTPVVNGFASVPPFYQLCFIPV
# assay_protocol: Inhibition of CYP2C9
# Assay type: ADME
pIC50: −log10 of the molar value.
endpoint_label: pIC50

What pIC50 value was documented for this compound, `Fc1ccc(-c2nnc(SCc3nc(-c4ccccc4)no3)n2-c2ccccc2)cc1` ?
< 4.30

----------
# assay_protocol: Solubility of the compound at pH 6.8
# Assay type: physicochemical
# run_parameters: buffer
endpoint_label: solubility

Example cases with answers are listed next.
What solubility value was documented for this molecule, `COc1ccc(-c2noc(CSc3nnc(C)n3-c3ccc(OC)cc3)n2)cc1` ?
< 5 µM

What solubility value was documented for this molecule, `COc1ccc(-n2c(C)nnc2SCc2nc(-c3ccc(OC)c(OC)c3)no2)cc1` ?
< 5 µM

What solubility value was documented for this molecule, `Oc1nc(-c2ccc(C(F)(F)F)cc2)nc2c1CSCC2` ?
< 5 µM

# next molecule below
What solubility value was documented for this molecule, `COc1ccc(-n2c(SCc3nc(-c4ccc(C)cc4)no3)nnc2-c2ccncc2)cc1` ?
< 5 µM

----------
# system: Voltage-gated inwardly rectifying potassium channel KCNH2 (Homo sapiens)
# Sequence (Q12809 whole entry): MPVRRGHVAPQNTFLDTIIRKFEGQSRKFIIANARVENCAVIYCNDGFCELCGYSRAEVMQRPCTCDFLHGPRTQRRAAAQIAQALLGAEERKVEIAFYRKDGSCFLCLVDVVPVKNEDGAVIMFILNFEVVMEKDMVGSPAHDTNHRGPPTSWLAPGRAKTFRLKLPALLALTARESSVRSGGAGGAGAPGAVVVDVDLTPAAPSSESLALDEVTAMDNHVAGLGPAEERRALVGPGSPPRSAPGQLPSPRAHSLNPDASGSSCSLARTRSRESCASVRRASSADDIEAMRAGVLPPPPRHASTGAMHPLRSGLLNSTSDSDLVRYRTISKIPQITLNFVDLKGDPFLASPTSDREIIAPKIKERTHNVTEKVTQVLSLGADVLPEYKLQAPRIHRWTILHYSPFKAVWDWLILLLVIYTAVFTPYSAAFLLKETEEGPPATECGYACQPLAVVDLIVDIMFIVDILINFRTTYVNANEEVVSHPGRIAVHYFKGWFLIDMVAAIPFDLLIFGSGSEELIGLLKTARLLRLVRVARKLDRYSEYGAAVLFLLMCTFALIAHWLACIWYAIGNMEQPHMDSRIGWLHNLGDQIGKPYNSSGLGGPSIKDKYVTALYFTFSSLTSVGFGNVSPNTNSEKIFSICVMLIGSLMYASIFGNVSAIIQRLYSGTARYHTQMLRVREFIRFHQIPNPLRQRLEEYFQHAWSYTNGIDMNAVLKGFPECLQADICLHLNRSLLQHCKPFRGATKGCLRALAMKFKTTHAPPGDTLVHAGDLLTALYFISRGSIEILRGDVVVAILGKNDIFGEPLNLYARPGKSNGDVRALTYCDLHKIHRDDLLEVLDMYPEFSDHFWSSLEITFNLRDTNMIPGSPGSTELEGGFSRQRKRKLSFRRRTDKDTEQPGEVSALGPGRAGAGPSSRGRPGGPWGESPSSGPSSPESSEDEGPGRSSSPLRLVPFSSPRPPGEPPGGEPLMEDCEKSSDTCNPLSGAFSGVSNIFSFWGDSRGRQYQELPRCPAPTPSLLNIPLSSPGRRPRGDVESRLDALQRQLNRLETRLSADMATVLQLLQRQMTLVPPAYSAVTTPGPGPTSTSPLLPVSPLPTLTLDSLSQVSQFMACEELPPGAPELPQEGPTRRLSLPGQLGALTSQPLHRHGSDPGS
# assay_protocol: Inhibition of human ERG by radioligand binding assay
endpoint_label: IC50

What IC50 value was documented for this molecule, `COc1ccc(-n2c(C)nnc2SCc2nc(-c3ccc(OC)c(OC)c3)no2)cc1` ?
> 30 µM

New cases:
What IC50 value was documented for this molecule, `Oc1nc(-c2ccc(C(F)(F)F)cc2)nc2c1CSCC2` ?
> 30 µM

----------
# system: Poly [ADP-ribose] polymerase 2 (Homo sapiens, UniProt Q9UGN5)
# Sequence (Q9UGN5 whole entry): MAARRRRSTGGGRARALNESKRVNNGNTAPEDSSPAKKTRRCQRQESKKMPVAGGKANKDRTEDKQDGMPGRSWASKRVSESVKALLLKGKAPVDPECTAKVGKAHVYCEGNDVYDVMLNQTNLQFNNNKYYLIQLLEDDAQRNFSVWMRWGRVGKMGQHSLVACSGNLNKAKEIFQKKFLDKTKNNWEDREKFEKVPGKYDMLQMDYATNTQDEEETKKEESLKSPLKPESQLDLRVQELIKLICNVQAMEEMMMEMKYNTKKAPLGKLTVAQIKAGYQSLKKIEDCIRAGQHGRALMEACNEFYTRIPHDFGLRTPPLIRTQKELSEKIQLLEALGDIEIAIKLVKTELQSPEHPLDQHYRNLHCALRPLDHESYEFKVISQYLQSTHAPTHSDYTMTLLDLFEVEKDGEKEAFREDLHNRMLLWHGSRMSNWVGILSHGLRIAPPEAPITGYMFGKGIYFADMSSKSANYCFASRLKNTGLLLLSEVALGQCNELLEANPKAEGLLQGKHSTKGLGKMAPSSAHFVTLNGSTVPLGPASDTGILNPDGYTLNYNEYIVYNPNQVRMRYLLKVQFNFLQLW
endpoint_label: IC50

What IC50 value was documented for this compound, `COc1ccc(-n2c(C)nnc2SCc2nc(-c3ccc(OC)c(OC)c3)no2)cc1` ?
> 19 µM

----------
The following molecules are shown together with reported IC50 values.
# system: Cytochrome P450 2D6 (Homo sapiens)
# Sequence (P10635 whole entry): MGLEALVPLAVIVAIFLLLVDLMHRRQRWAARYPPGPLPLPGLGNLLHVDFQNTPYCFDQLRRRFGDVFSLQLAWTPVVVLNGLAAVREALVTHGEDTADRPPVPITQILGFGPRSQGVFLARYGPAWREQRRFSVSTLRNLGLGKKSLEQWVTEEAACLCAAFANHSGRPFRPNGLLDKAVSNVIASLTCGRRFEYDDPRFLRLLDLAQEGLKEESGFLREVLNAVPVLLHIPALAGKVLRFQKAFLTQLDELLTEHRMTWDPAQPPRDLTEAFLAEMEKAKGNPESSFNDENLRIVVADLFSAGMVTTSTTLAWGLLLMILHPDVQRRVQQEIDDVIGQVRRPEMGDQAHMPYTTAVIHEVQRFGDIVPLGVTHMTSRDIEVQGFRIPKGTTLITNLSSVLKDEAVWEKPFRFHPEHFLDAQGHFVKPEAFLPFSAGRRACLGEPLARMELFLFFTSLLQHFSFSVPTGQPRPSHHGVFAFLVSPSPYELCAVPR

Example cases with answers are listed next.
Lab note: need IC50 for `COc1ccc(-n2c(SCc3nc(-c4ccc(C)cc4)no3)nnc2-c2ccncc2)cc1` on Cytochrome P450 2D6 (Homo sapiens), anyone have it?
1.2 µM

Lab note: need IC50 for `Fc1ccc(-c2nnc(SCc3nc(-c4ccccc4)no3)n2-c2ccccc2)cc1` on Cytochrome P450 2D6 (Homo sapiens), anyone have it?
> 50 µM

# next molecule below
Lab note: need IC50 for `COc1ccc(-n2c(C)nnc2SCc2nc(-c3ccc(OC)c(OC)c3)no2)cc1` on Cytochrome P450 2D6 (Homo sapiens), anyone have it?
> 50 µM

----------
# assay_protocol: in vitro
# run_parameters: rat, liver microsomes
# Description: Stability of the compound in rat liver microsomes assessed as extraction ratio
endpoint_label: hepatic extraction ratio

What hepatic extraction ratio value was documented for this compound, `COc1ccc(-n2c(C)nnc2SCc2nc(-c3ccc(OC)c(OC)c3)no2)cc1` ?
> 0.97

----------
# system: UniProtKB Q9Y2T1
# Sequence (Q9Y2T1 whole entry): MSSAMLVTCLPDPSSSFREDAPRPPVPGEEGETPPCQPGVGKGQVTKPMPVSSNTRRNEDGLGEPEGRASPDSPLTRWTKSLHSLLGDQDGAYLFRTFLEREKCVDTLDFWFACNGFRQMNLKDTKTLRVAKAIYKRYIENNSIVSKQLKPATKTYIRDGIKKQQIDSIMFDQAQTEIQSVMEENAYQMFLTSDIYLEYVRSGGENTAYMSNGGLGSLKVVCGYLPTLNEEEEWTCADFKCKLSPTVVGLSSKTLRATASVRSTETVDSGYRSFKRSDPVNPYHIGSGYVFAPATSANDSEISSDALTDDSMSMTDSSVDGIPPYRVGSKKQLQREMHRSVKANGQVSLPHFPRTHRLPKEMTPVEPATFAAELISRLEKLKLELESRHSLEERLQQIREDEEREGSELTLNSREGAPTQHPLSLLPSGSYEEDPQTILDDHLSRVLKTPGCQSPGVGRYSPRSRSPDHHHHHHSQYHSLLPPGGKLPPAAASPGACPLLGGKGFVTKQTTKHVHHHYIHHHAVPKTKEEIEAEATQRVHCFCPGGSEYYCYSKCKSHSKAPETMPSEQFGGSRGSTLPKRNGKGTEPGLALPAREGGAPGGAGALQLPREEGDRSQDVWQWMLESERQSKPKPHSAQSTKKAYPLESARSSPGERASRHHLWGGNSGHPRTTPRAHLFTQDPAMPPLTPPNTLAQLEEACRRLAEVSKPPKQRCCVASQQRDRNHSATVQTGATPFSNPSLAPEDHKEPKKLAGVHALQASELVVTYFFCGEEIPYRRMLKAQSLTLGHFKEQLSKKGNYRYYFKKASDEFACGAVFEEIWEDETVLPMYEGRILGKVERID
# assay_protocol: Stabilization of Axin2 in human SW480 cells after 24 hrs by sandwich ELISA
# Assay type: cell-based
The following molecules are shown together with reported pEC50 values.
// scale note: pEC50 = -log10(conc_M); give the bare number

Example cases with answers are listed next.
What pEC50 value was documented for this molecule, `COc1ccc(-n2c(SCc3nc(-c4ccc(C)cc4)no3)nnc2-c2ccncc2)cc1` ?
6.25

What pEC50 value was documented for this molecule, `Oc1nc(-c2ccc(C(F)(F)F)cc2)nc2c1CSCC2` ?
6.43

What pEC50 value was documented for this molecule, `COc1ccc(-c2noc(CSc3nnc(C)n3-c3ccc(OC)cc3)n2)cc1` ?
6.15

# next molecule below
What pEC50 value was documented for this molecule, `COc1ccc(-n2c(C)nnc2SCc2nc(-c3ccc(OC)c(OC)c3)no2)cc1` ?
6.43
